Listing: growth of selected compounds
System: 786-0 renal
Assay: NCI-60 one-dose screen, 48 h (100 = growth as untreated, 0 = no growth, -100 = all killed)
Details: 10 µM unless noted
Description: Cells are grown in 96 well plates and exposed to the test compound for 48 hours. Compounds are tested at a single concentration, which is 10^-5 M for most compounds. The reported endpoint is percent growth (GI% or GIPRCNT), where numbers from 0 - 100% represent growth inhibition, and numbers from -100% - 0 represent cell death. For example, a value of 40 represents 60% growth inhibition. A value of 0 means no net growth occurred over the course of the experiment. […]
This is part of a sample that, as a whole, favours compounds with a hit. Of some 83,000 tested, about 20% had one in any assay.
# unit: % | format: bare number

>>> df
                                   compound  reported
0  O=[N+]([O-])c1ccc(NC(c2ccccc2)c2ccc3cccnc3c2O)cc1 (centres undefined)      18.3

Input: Which growth is listed for `C/C(CC(C)C)=N/NC(N)=S` ?
Output: 107

Input: What does the data say about its growth? Entry: `CC(=O)Oc1ccc(C(c2ccc(OC(C)=O)cc2)c2ccccn2)cc1`
Output: 101

Input: Entry under review: `Cc1c(Cl)cc(Cl)c(N)c1Cl` . Reported growth?
Output: 109

Input: What does the record list as growth for CC1CCC(=O)N1c1ccc(N)cc1 (centres undefined) ?
Output: 106

Input: So what's the measured growth for this one? `CC(=O)Nc1cscc1NC(C)=O`
Output: 101

Input: # input compound: `CC(=O)c1cccc(OC(=O)c2ccccc2)c1` ; wanted: its growth
Output: 102

Input: For `O=c1[nH]c(=S)[nH]n1C(=S)n1[nH]c(=S)[nH]c1=O` , what is its reported growth?
Output: 106

Input: Given the compound `CSc1nc(N)c(N)c(N)n1` , what is its reported growth?
Output: 109

Input: growth for `O=[N+]([O-])c1ccc(NC2CCCCC2)nc1` ?
Output: 103

Input: Can you look up the measured growth of `COC(=O)c1nc(=S)[nH]c(C(=O)OC)c1C(=O)c1ccccc1` for me?
Output: 120

Input: Fill blank: measured growth of the compound COC(=O)C(Cc1cn(C(C)=O)c2ccccc12)P(=O)(OC)OC (centres undefined) is ____.
Output: 105

Input: Query (compound): `CC(=O)C[n+]1ccccc1Sc1ccc(Cl)cc1` ; field requested: growth
Output: 82.6

Input: # get_value(readout='growth', item= Nc1ccccc1SC1CC(=O)N(c2ccc(I)cc2)C1=O (centres undefined) )
Output: 105

Input: # query: growth of entry CCN(CC)C(CC(=O)c1ccccc1)C(=O)c1ccccc1 (centres undefined)
Output: 93.5

Input: // query growth value for entry `O=C(O)c1ccc2c3ccc(C(=O)O)c4c(C(=O)O)ccc(c5ccc(C(=O)O)c1c25)c43`
Output: 107

Input: # get_value(readout='growth', item= `CCCCC/C(C)=N\NC(N)=S` )
Output: 101

Input: Entry under review: `Cc1cc2ccccc2c2cc3ccccc3cc12` . Reported growth?
Output: 110

Input: Would you kindly share the measured growth for CC(O)CCNC(c1ccccc1)C(O)c1ccccc1 (centres undefined) ?
Output: 97.9

Input: Give its growth value. Item: `O=C1C=CC(=O)N1Cc1ccco1`
Output: 104

Input: Entry under review: `Cc1c(Cl)c(C)c(Cc2c(C)c(Cl)c(C)c(Cl)c2O)c(O)c1Cl` . Reported growth?
Output: 49

Input: Quick one: growth of `OCc1cccc(F)c1` ?
Output: 103

Input: Look up growth: `COC(=O)c1nc(N)nc(C(=O)OC)c1C(=O)c1ccc(F)cc1`
Output: 108

Input: Which growth value belongs to CCN(CC)CCO/N=C1\CC(c2ccc(OC)c(OC)c2)Oc2ccccc21 (centres undefined) ?
Output: 81.1
